- Test system: HepG2
- runDescription: cytotoxicity call (relative viability < 0.9)
- measurementParameters: 10 µM
Among all 39,000 compounds or so, about 3,300 (8.5%) were called active. This excerpt belongs to a sample that is enriched for actives.
propertyLabel: cytotoxicity call

Example cases with answers are listed next.
>>> result("C[C@H](CO)N1C[C@H](C)[C@@H](CN(C)Cc2ccc(Oc3ccccc3)cc2)Oc2c(NC(=O)Nc3cccc4ccccc34)cccc2C1=O")
"active"
>>> result("O=C(N[C@H](NC(=S)Nc1ccc(F)c([N+](=O)[O-])c1)C(Cl)(Cl)Cl)C(c1ccccc1)c1ccccc1")
"active"
>>> result("C[C@H]1CN([C@@H](C)CO)C(=O)Cc2cc(NC(=O)C3CC3)ccc2O[C@@H]1CN(C)S(=O)(=O)c1ccccc1")
"inactive"
>>> result("C[C@@H]1CN([C@H](C)CO)C(=O)c2cccc(NS(=O)(=O)c3cn(C)cn3)c2O[C@H]1CN(C)S(=O)(=O)c1ccccc1")
"inactive"
>>> result("C[C@@H]1CN([C@@H](C)CO)C(=O)c2cc(NC(=O)Nc3ccc(F)cc3)ccc2O[C@@H]1CN(C)Cc1ccc(-c2ccccc2)cc1")
"active"
>>> result("COCC#Cc1ccc2c(c1)O[C@@H](CN(C)C(=O)C1CCCCC1)[C@@H](C)CN([C@H](C)CO)S2(=O)=O")
"inactive"
>>> result("COc1ccc(S(=O)(=O)N(C)C[C@H]2OCCCC[C@@H](C)Oc3ccc(NC(=O)CCCCCC(=O)Nc4ccccc4N)cc3C(=O)N([C@H](C)CO)C[C@H]2C)cc1")
"inactive"
>>> result("C[C@H](CO)N1C[C@H](C)[C@H](CN(C)Cc2ccc(-c3ccccc3)cc2)Oc2ccc(NC(=O)Nc3ccc(F)cc3)cc2C1=O")
"inactive"

-- ask What value of cytotoxicity call has been recorded for this entry: `C[C@H](CO)N1C[C@H](C)[C@H](CN(C)Cc2ccc(Oc3ccccc3)cc2)Oc2c(NC(=O)Nc3cccc4ccccc34)cccc2C1=O`
-- reply inactive

-- ask Fill blank: measured cytotoxicity call of the compound `C[C@H](CO)N1C[C@H](C)[C@@H](CN(C)Cc2ccc(-c3ccccc3)cc2)Oc2ccc(NC(=O)Nc3ccc(F)cc3)cc2C1=O` is ____.
-- reply inactive

-- ask Fill in the blank: the reported cytotoxicity call of `O=C(C[C@@H]1C=C[C@H](NC(=O)C2CCC2)[C@H](CO)O1)NCCCN1CCOCC1` is ____.
-- reply inactive
